- test system: T1, human IL-33 (R&D Systems, #3625-IL-010/CF) (human, UniProt O95760 112-270)
- T1 construct: Commercial recombinant protein; also called hIL-33; interleukin-33
- T1 sequence (looked up): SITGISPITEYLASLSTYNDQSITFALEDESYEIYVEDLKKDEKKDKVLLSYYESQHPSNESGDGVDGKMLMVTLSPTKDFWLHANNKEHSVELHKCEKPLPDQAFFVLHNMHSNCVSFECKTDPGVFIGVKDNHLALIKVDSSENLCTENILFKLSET
- assay: SPR 25C pH7.4, mAb captured
- Experimental: Equilibrium dissociation constants (KD values) for IL-33 binding to purified anti-IL-33 monoclonal antibodies were determined using a real-time surface plasmon resonance biosensor using a Biacore 4000 instrument. […] Association of either hIL-33 or MfIL-33-6His to the captured monoclonal antibody was monitored for 4 minutes and their dissociation in ABS-ET running buffer was monitored for 10 minutes. […]
Record form. Attribute: pKd. Fill in for each entry.
Answers are plain numbers, as −log10 of the molar value.

Input line: Find the recorded pKd belonging to H4H9663P (antibody, human IgG4, V domains shown, Human IgG4 Fc (H4H)) VH: QVQLVQSGAEVKKPGASVKVSCKASGYTFTGHYMYWMRQAPGQGLEWMGWINPNSGGTNYAQKFQDRVTMTRDTSISTAYMELSRLRSDDTAVYYCARGRYGSSWYGGFEYWGQGTLVTVSS VL: DIQMTQSPSSVSASVGDRVTITCRASQGITSWLAWYQQKPGKAPNLLIYAAASLQSGVPSRFSGSGSGTDFTLTISSLQPEDFTTYYCQQAYSLPLTFGGGTKVEIK and report it.
Output line: 9.52

Input line: Likewise for H4H9671P (antibody, human IgG4, V domains shown, Human IgG4 Fc (H4H)) VH: EVQLVESGGGLVQPGGSLRLSCAASGFTLRSYFMTWVRQVPGKGLEGVSAISGISGGTYYTDSVKGRFTISRDNSKNTLFLQMNSLRAEDTAVYFCARTVYSSSYYGGFQHWGQGTLVTVSS VL: DIQMTQSPSSVSVSVGDRVTITCRASQGISSWLAWYQQKPGKAPKLLIYVASSLQSGVPSRFSGSGSGTDFTLTISSLQPEDFATYYCQQTNSFPLTFGGGTKVEIK ?
Output line: 9.34

Continue with the binder presented below.
Input line: Find the recorded pKd belonging to H1M9559N (antibody, mouse IgG1, V domains shown, Human variable domains, mouse IgG1 Fc (H1M)) VH: QVQLVESGGGVVQPGRSLRLSCAASGFTFSSYGMHWVRQAPGKGLEWVAVIWYDGRNKYYTDSVKGRFTISRDNSKNTLYLQMDSLRAEDTAVYYCARERYISSYYGGFDPWGQGALVTVSS VL: DIQMTQSPSSVSASVGDRVTITCRASQGISSWLAWYQQKPGKAPKVLIYAASSLQSGVPSRFSGSGSGTDFTLTISSLQPEDFATYYCQQANSFPFTFGPGTKLDIK and report it.
Output line: 9.17
